- TGT: AhR (Homo sapiens, UniProt P35869)
- Construct: The dioxin reporter cell line was obtained by transfecting HeLa cells with CYP1A1-Luc and pSG5-puro plasmids; endogenous in cells; host or cells: HAhLP (HeLa stably transfected with CYP1A1-Luc and pSG5-puro)
- Sequence (P35869 11-848): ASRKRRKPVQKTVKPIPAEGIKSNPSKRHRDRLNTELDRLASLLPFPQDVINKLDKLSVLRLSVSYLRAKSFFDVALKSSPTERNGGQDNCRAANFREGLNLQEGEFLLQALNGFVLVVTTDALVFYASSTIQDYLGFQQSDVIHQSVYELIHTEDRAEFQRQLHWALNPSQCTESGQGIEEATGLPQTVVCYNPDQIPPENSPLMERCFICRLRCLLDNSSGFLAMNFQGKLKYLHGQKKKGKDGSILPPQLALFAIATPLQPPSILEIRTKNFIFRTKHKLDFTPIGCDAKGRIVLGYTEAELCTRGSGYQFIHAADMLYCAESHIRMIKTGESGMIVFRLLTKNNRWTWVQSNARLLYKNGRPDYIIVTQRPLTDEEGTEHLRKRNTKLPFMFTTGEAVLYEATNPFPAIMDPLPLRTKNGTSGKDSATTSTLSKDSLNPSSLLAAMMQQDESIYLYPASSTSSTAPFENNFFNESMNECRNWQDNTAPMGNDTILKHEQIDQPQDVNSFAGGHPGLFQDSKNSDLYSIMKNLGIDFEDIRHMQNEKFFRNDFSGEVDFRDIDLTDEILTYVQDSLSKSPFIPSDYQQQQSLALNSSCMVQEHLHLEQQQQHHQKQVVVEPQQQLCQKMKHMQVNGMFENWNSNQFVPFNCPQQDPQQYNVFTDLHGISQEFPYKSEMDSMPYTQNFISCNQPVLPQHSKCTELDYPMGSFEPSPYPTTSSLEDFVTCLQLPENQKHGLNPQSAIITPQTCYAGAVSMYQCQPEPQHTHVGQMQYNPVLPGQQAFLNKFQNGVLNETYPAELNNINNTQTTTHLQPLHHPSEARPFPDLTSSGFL
- METHOD_DESCRIPTION: HAhLP cell luciferase assay (CYP1A1-Luc reporter in HeLa cells)
- Assay type: cell-based
- CONDITION_PARAMETERS: read-out: EC50 value, induction of luciferase expression
OBSERVED_PROPERTY: EC50
Output should be the measured figure followed by the unit it is expressed in.

INPUT: Enter recorded EC50 with AhR (Homo sapiens, UniProt P35869) for Clc1cc2c(cc1Cl)Oc1cc(Cl)c(Cl)cc1O2 [dioxin] here.
OUTPUT: 0.2 nM

Entry source: paper PMC1253752
